- System: MDA-MB-435 melanoma
- methodNotes: NCI-60 one-dose screen, 48 h
- assaySetup: 10 µM
About 83,000 compounds went through this panel and 20% of them were active in at least one assay; those are over-represented in the sample as a whole. The source made the active and inactive calls. How the source made its calls: active means growth percent below 10; inactive means the rest. Starred links: 1 amine or outer side, 2 acyl side, 3 side chain; linkers in the order of their positions; H or OH if unused. Positions of bridges follow the written chain, without caps; N, C: chain ends. Non-standard residues stand in square brackets, D forms with d. Residues, ends and D or L forms follow the SMILES beside them. Chains are numbered I, II in the order given. Actinocin(9to1) = Cc1c2oc3c(C)ccc(C(=O)[*:1])c3nc-2c(C(=O)[*:2])c(N)c1=O; aThr = C[C@H](O)[C@H](N)C(=O)O; NMeV = CN[C@H](C(=O)O)C(C)C; Sar = CNCC(=O)O
Give your call using only these classes: label 1 (active), label 0 (inactive)

// below: answered molecules
INSERT INTO results (molecule, targetdesc, grouplabel) VALUES
  ('CSc1ccc2c(c1)C(N1CCN(C)CC1)Cc1ccccc1S2 (stereo unspecified)', 'MDA-MB-435 melanoma', 'label 1'),
  ('Cc1cnc(/C=N\NC(N)=S)c2cccc(N)c12', 'MDA-MB-435 melanoma', 'label 0');

## Task Assay result, entry O=C(/C(=C/c1ccccc1)CBr)c1ccccc1 — outcome?
## Result label 0

## Task Assay result, entry Cc1c2oc3c(C)ccc(C(=O)N[C@@H]4C(=O)N[C@H](C(C)C)C(=O)N5CCC[C@H]5C(=O)N(C)CC(=O)N(C)[C@@H](C(C)C)C(=O)O[C@H]4C)c3nc-2c(C(=O)N[C@@H]2C(=O)N[C@H](C(C)C)C(=O)N3CCC[C@H]3C(=O)N(C)CC(=O)N(C)[C@@H](C(C)C)C(=O)O[C@H]2C)c(N)c1=O (I: [aThr][dV]P[Sar][NMeV] / II: [aThr][dV]P[Sar][NMeV]; ester I:1-I:C, II:1-II:C; linker I:N-II:N via Actinocin(9to1)) — outcome?
## Result label 1

## Task Assay result, entry Cc1cc(NCCCN(C)C)c2ccc3c(ccc4c(NCCCN(C)C)cc(C)nc43)c2n1 — outcome?
## Result label 1

## Task Assay result, entry N#C/C(=C1C=C/C(=N\O)C(Cl)=C\1)c1ccccc1 — outcome?
## Result label 1

---

Here, each record is paired with measured growth data.
- System: OVCAR-3 ovarian
- methodNotes: NCI-60 one-dose screen, 48 h (100 = growth as untreated, 0 = no growth, -100 = all killed)
- assaySetup: 10 µM
This is part of a sample that, as a whole, favours compounds with a hit. Of some 83,000 tested, about 20% had one in any assay.
# number only, unit % dropped from output

## Task Name the reported growth value associated with the molecule COc1cc(C(C)(C)C)cc(OC)c1C(O)(c1c(OC)cc(C(C)(C)C)cc1OC)c1c(OC)cc(C(C)(C)C)cc1OC
## Result -94.1

## Task Name the reported growth value associated with the molecule Cc1cc(NCCCN(C)C)c2ccc3c(ccc4c(NCCCN(C)C)cc(C)nc43)c2n1
## Result -58.3

## Task Name the reported growth value associated with the molecule N#C/C(=C1C=C/C(=N\O)C(Cl)=C\1)c1ccccc1
## Result 39.6

## Task Name the reported growth value associated with the molecule CCCCCCCCCCCCCCCCCN
## Result 108

## Task Name the reported growth value associated with the molecule CN1CCN(c2ccc3nc(-c4ccc5nc(-c6ccc(O)cc6)[nH]c5c4)[nH]c3c2)CC1
## Result 66.4

## Task Name the reported growth value associated with the molecule CSc1ccc2c(c1)C(N1CCN(C)CC1)Cc1ccccc1S2 (stereo unspecified)
## Result 61.4

## Task Name the reported growth value associated with the molecule S=c1[nH]nc(Cc2ccccc2)c(=S)[nH]1
## Result 95.4

## Task Name the reported growth value associated with the molecule CN(C)CCC(=O)c1c[nH]c2ccccc12
## Result 110

## Task Name the reported growth value associated with the molecule Nc1ccc2cc(Br)c3ccccc3c2c1
## Result 74.6

## Task Name the reported growth value associated with the molecule O=C(/C(=C/c1ccccc1)CBr)c1ccccc1
## Result 66.1

## Task Name the reported growth value associated with the molecule Cc1cnc(/C=N\NC(N)=S)c2cccc(N)c12
## Result 0.342

---

- System: SK-MEL-28 melanoma
- methodNotes: NCI-60 one-dose screen, 48 h (100 = growth as untreated, 0 = no growth, -100 = all killed)
- assaySetup: 10 µM
The panel holds about 83,000 compounds, 20% with a hit somewhere; the sample as a whole holds those more often.
Lab note: compare growth against 70%. Equal or greater, write Met. Smaller, write Not met.

// below: answered compounds
INSERT INTO results (compound, grouplabel) VALUES
  ('S=c1[nH]nc(Cc2ccccc2)c(=S)[nH]1', 'Met'),
  ('O=c1[nH]cc(F)c(=O)[nH]1', 'Not met'),
  ('BrC/C=C/C[P+](c1ccccc1)(c1ccccc1)c1ccccc1', 'Not met'),
  ('Cc1cnc(/C=N\NC(N)=S)c2cccc(N)c12', 'Not met'),
  ('CCCCCCCCCCCCCCCCCN', 'Met');

## Task Form field: growth at least 70%? Entry: Nc1ccc2cc(Br)c3ccccc3c2c1
## Result Met

## Task Form field: growth at least 70%? Entry: CN(C)CCC(=O)c1c[nH]c2ccccc12
## Result Met

## Task Form field: growth at least 70%? Entry: CSc1ccc2c(c1)C(N1CCN(C)CC1)Cc1ccccc1S2 (stereo not given)
## Result Not met

## Task Form field: growth at least 70%? Entry: COc1cc(C(C)(C)C)cc(OC)c1C(O)(c1c(OC)cc(C(C)(C)C)cc1OC)c1c(OC)cc(C(C)(C)C)cc1OC
## Result Not met

---

- System: NCI-H322M lung
- methodNotes: NCI-60 one-dose screen, 48 h
- assaySetup: 10 µM
This is part of a sample that, as a whole, favours compounds with a hit. Of some 83,000 tested, about 20% had one in any assay. Active and inactive are the calls of the source. Rule for the calls: active = growth percent below 10; inactive = the rest.
Give your call using only these classes: class 1 (active), class 0 (inactive)

// below: answered molecules
INSERT INTO assay_data (querysmiles, grouplabel) VALUES
  ('N#C/C(=C1C=C/C(=N\O)C(Cl)=C\1)c1ccccc1', 'class 0'),
  ('Nc1ccc2cc(Br)c3ccccc3c2c1', 'class 0'),
  ('CN1CCN(c2ccc3nc(-c4ccc5nc(-c6ccc(O)cc6)[nH]c5c4)[nH]c3c2)CC1', 'class 0'),
  ('COc1cc(C(C)(C)C)cc(OC)c1C(O)(c1c(OC)cc(C(C)(C)C)cc1OC)c1c(OC)cc(C(C)(C)C)cc1OC', 'class 1');

Read the next record carefully.
## Task Assay result, entry S=c1[nH]nc(Cc2ccccc2)c(=S)[nH]1 — outcome?
## Result class 0

---

- Test system: NCI-H322M lung
- methodNotes: NCI-60 one-dose screen, 48 h (100 = growth as untreated, 0 = no growth, -100 = all killed)
- assaySetup: 10 µM
About 83,000 compounds went through this panel and 20% of them were active in at least one assay; those are over-represented in the sample as a whole.
quantityName: growth (%)
# number only, unit % dropped from output

INSERT INTO assay_data (querysmiles, quantityname, recordedresult) VALUES
  ('BrC/C=C/C[P+](c1ccccc1)(c1ccccc1)c1ccccc1', 'growth', 96.5);

## Task Name the reported growth value associated with the compound CCCCCCCCCCCCCCCCCN
## Result 110

## Task Name the reported growth value associated with the compound O=C(/C(=C/c1ccccc1)CBr)c1ccccc1
## Result 90.4

---

- Test system: PC-3 prostate
- methodNotes: NCI-60 one-dose screen, 48 h (100 = growth as untreated, 0 = no growth, -100 = all killed)
- assaySetup: 10 µM
Compounds without any hit were thinned out: in the full panel of roughly 83,000, 20% have a hit. Starred links: 1 amine or outer side, 2 acyl side, 3 side chain; linkers in the order of their positions; H or OH if unused. Positions of bridges follow the written chain, without caps; N, C: chain ends. Non-standard residues stand in square brackets, D forms with d. Residues, ends and D or L forms follow the SMILES beside them. Chains are numbered I, II in the order given. Actinocin(9to1) = Cc1c2oc3c(C)ccc(C(=O)[*:1])c3nc-2c(C(=O)[*:2])c(N)c1=O; aThr = C[C@H](O)[C@H](N)C(=O)O; NMeV = CN[C@H](C(=O)O)C(C)C; Sar = CNCC(=O)O
Threshold 20%. growth below it: true (1). growth at it or above: false (0).

INSERT INTO assay_data (molecule, grouplabel) VALUES
  ('Cc1c2oc3c(C)ccc(C(=O)N[C@@H]4C(=O)N[C@H](C(C)C)C(=O)N5CCC[C@H]5C(=O)N(C)CC(=O)N(C)[C@@H](C(C)C)C(=O)O[C@H]4C)c3nc-2c(C(=O)N[C@@H]2C(=O)N[C@H](C(C)C)C(=O)N3CCC[C@H]3C(=O)N(C)CC(=O)N(C)[C@@H](C(C)C)C(=O)O[C@H]2C)c(N)c1=O (I: [aThr][dV]P[Sar][NMeV] / II: [aThr][dV]P[Sar][NMeV]; ester I:1-I:C, II:1-II:C; linker I:N-II:N via Actinocin(9to1))', 'true (1)'),
  ('S=c1[nH]nc(Cc2ccccc2)c(=S)[nH]1', 'false (0)'),
  ('BrC/C=C/C[P+](c1ccccc1)(c1ccccc1)c1ccccc1', 'false (0)'),
  ('CSc1ccc2c(c1)C(N1CCN(C)CC1)Cc1ccccc1S2 (stereo not given)', 'false (0)');

## Task Answer whether the molecule COc1cc(C(C)(C)C)cc(OC)c1C(O)(c1c(OC)cc(C(C)(C)C)cc1OC)c1c(OC)cc(C(C)(C)C)cc1OC has growth strictly less than 20%
## Result true (1)

meta.source: PubChem BioAssay (NCI)
